# Test system: corn
# RUN_DESCRIPTION: Test A postemergence
# Format: in vivo, Zea mays
# ASSAY_SETUP: postemergence, 125 g ai/ha, about 10 days, visual rating on 0 to 100 scale (0 no effect, 100 complete control)
METRIC_NAME: Corn plant response rating
Please state the value as a number alone, without comment.

>>> test_value("CCCNC(=O)c1cc(CC)n(Cc2nc(C(F)(F)F)nn2C)n1 [Compound 109]")
80
>>> test_value("Cc1cc(C(=O)NCC(F)(F)F)nn1Oc1ccnc(C(F)(F)F)c1 [Compound 79]")
10
>>> test_value("CCCc1cc(C(=O)Nc2ccc(F)cc2)nn1Oc1ccnc(C(F)(F)F)c1 [Compound 94]")
0
>>> test_value("CCCNC(=O)c1cc(CC)n(Cc2cc(C(F)(F)F)nn2CC)n1 [Compound 117]")
20

Read the next record carefully.
For the compound CCCc1cc(C(=O)NC2CC2)nn1Cc1cc(C(F)(F)F)nn1C [Compound 202] , report Corn plant response rating.
80

Reference source: patent US20150105252A1
